log10(IC50) values for Fibroblast growth factor receptor 1 (Homo sapiens, UniProt P11362), compiled from several publications.
Log10 applied to IC50; unit prior to transform: nM.

Examples with their reported log10(IC50) follow.
>>> measurement("CCN1CCN(c2ccc(C(=O)Nc3n[nH]c4cc(-c5c(C)cccc5C)ccc34)cc2)CC1")
1.62
>>> measurement("Cn1cnc(S(=O)(=O)n2ccc3ncc(-c4cn[nH]c4)nc32)c1")
1.19
>>> measurement("COc1cc(OC)cc(-c2ccc3c(NC(=O)c4ccc(N5C[C@@H](C)N[C@@H](C)C5)cc4)n[nH]c3c2)c1")
1.49
>>> measurement("CCN1CCN(c2ccc(C(=O)Nc3n[nH]c4cc(-c5cccc(OC(C)C)c5)ccc34)cc2)CC1")
0.99
>>> measurement("CCN1CCN(c2ccc(C(=O)Nc3n[nH]c4cc(-c5cccc(OC)c5)ccc34)cc2)CC1")
1.18
>>> measurement("COc1cc(F)cc(-c2ccc3c(NC(=O)c4ccc(N5CCN(C)CC5)cc4)n[nH]c3c2)c1")
1.01

// each listed compound needs a value for log10(IC50)
1. CCN1CCN(c2ccc(C(=O)Nc3n[nH]c4cc(-c5cccc(C(=O)OC)c5)ccc34)cc2)CC1
2. Cc1ccc(C(=O)Nc2ccc(CNCCN3CCOCC3)c(C(F)(F)F)c2)cc1C#Cc1cnc2cccnn12
3. Cn1cc(-c2cnc3ccn(S(=O)(=O)c4cccc([N+](=O)[O-])c4)c3n2)cn1
4. CCN1CCN(c2ccc(C(=O)Nc3n[nH]c4cc(-c5cccc(Cl)c5Cl)ccc34)cc2)CC1

Solution:
1.89
2.80
1.93
1.65

Give log10(IC50) for all compounds that follow.
1. O=C(Nc1ccc(-c2ccc(NC(=O)C3CC3)nc2)cc1)Nc1ccc(Cl)c(C(F)(F)F)c1
2. CCOc1ccc(/C=C2\CC[C@@]3(C2=O)[C@@H](c2ccc(OCC)cc2)CN(C)[C@]32C(=O)c3cccc4cccc2c34)cc1
3. CCN1CCN(c2ccc(C(=O)Nc3n[nH]c4cc(-c5cc(Cl)cc(Cl)c5)ccc34)cc2)CC1

Solution:
1: 2.50; 2: 3.43; 3: 1.83

Give log10(IC50) for all compounds that follow.
1. COc1cc(F)cc(-c2ccc3c(NC(=O)c4ccc(N5CCCN(C)CC5)cc4)n[nH]c3c2)c1
2. COc1cccc(-c2ccc3c(NC(=O)c4ccc(N5C[C@@H](C)N[C@@H](C)C5)cc4)n[nH]c3c2)c1
3. CCOc1cccc(-c2ccc3c(NC(=O)c4ccc(N5CCN(CC)CC5)cc4)n[nH]c3c2)c1
4. COc1cccc(-c2ccc3c(NC(=O)c4ccc(N5CCN(C)CC5)cc4)n[nH]c3c2)c1

Solution:
1. 0.52
2. 1.32
3. 1.12
4. 1.45
